Please go through the items and note down their GI50.
- System: NCI/ADR-RES
- Experimental Details: NCI tumour cell line growth inhibition, 48 h
The source made the active and inactive calls. No stated cut-off is given here; in the data, active = GI50 up to about 1.1 µM and inactive = higher.

Q) So what does the record say about GI50 for CNCCNc1ccc2c3c(nn2CCNCCO)-c2c(O)ccc(O)c2C(=O)c13 ?
A) 20.8 µM (inactive)

Q) Reported GI50, compound Nc1nc(-c2ccccc2)nc2oc(-c3cccs3)nc12 : ____
A) > 100 µM (inactive)

Q) # lookup: GI50 of Nc1c(-c2nc3ccccc3o2)sc(=S)n1-c1ccc(Cl)cc1
A) 19.3 µM (inactive)

Q) So what does the record say about GI50 for Clc1ccc(-c2nnc(-c3cccc4ccccc34)o2)cc1Cl ?
A) > 100 µM (inactive)

Q) Item under review: CCC(=O)Nc1ccc(N2C(=O)C(Cl)C2c2ccc(SC)cc2)cc1 (stereo not given) . Reported GI50?
A) > 100 µM (inactive)

Q) What value of GI50 has been reported for the following compound? Cc1ccc2c(=O)c(-c3nnsn3)c[nH]c2n1
A) > 100 µM (inactive)

Q) # get_value(readout='GI50', item= O=C1C2=C(CC3=C(C2)CS(=O)(=O)C3)C(=O)C2=C1CC1=C(C2)CS(=O)(=O)C1 )
A) 16.3 µM (inactive)

Q) For the compound O=C(OCC(OC(=O)c1ccccc1)C(OC(=O)c1ccccc1)C(OC(=O)c1ccccc1)c1cnn(-c2ccccc2)n1)c1ccccc1 (stereo not given) , what GI50 is on record?
A) > 100 µM (inactive)

Q) What does the data say about its GI50? Entry: CC1CN=C(N(Cc2ccc(F)cc2)C(=O)Nc2ccc(Cl)cc2)S1 (stereo not given)
A) 12.5 µM (inactive)

Q) Entry under review: CN1N=C(c2ccncc2)OC1c1cccc(C(F)(F)F)c1 (stereo not given) . Reported GI50?
A) > 100 µM (inactive)

Where these numbers come from: ChEMBL document CHEMBL1201862
